Target: human PPAR alpha (Homo sapiens, UniProt Q07869)
Sequence (Q07869 whole entry): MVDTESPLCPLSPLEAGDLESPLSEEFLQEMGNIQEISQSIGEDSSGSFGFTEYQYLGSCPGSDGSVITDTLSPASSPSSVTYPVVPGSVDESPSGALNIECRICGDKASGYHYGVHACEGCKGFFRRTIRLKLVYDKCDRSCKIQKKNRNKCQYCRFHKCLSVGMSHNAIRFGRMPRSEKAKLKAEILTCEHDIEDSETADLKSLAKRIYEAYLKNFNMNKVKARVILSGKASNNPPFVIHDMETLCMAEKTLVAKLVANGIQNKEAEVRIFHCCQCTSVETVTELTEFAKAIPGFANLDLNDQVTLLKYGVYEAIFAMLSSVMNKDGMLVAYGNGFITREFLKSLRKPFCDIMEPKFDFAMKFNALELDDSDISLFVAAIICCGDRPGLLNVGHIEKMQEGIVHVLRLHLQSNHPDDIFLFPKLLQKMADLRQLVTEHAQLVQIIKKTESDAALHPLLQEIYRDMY
Assay: PPARα EC50 assay (assays described in WO03/051821)
Assay type: cell-based
Experimental readout: EC50 (nM)

{"columns": ["Smiles repr", "Experimental readout", "Endpoint value"],
 "data": [
  ["CCO[C@@H](Cc1ccc(OCC(=O)N(CC)Cc2ccc(OC(F)(F)F)cc2)cc1)C(=O)O", "EC50", 3],
  ["CCO[C@@H](Cc1ccc(OCC(=O)N(CC)Cc2ccc(C(F)(F)F)cc2)cc1)C(=O)O", "EC50", 5],
  ["CCCCN(Cc1ccc(C(F)(F)F)cc1)C(=O)COc1ccc(C[C@H](OCC)C(=O)O)cc1", "EC50", 3]
]}

a: CCO[C@@H](Cc1ccc(OCC(=O)N(CC)Cc2ccc(Cl)cc2)cc1)C(=O)O
b: CCCCN(Cc1ccc(C(F)(F)F)cc1F)C(=O)COc1ccc(C[C@H](OCC)C(=O)O)cc1
Please state the entry with greater EC50 among a and b . Could you answer with the label of the item you picked? a
